Ref: patent US20120269817A1

# System Name: T1, human tissue factor pathway inhibitor (TFPI) (human, UniProt P10646 29-304, limits assumed)
# T1 construct: Bought protein; also called human TFPI; hTFPI
# T1 sequence (looked up): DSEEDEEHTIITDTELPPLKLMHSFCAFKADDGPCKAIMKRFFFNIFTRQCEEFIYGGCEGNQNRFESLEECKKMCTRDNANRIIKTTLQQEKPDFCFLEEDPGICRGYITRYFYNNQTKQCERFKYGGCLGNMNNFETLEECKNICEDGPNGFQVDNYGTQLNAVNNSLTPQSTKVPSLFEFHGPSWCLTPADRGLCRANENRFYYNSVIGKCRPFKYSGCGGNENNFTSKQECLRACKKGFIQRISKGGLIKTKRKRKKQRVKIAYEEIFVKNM
# Assay Overview: Biacore, TFPI on CM5 chip, Fab in mobile phase
Label TRUE when Kd is strictly below 10 nM; otherwise label FALSE.

INSERT INTO measurements (binder, group) VALUES
  ('TP-2G7 Fab (Fab, V domains shown, Human Fab from HuCal Gold, expressed in E. coli TG1) VH: QVQLVESGGGLVQPGGSLRLSCAASGFTFNSYAMSWVRQAPGKGLEWVSNISSNSSNTYYADSVKGRFTISRDNSKNTLYLQMNSLRAEDTAVYYCARKGGGEHGFFPSDIWGQGTLVTVSS VL: DIELTQPPSVSVAPGQTARISCSGDNLGTYYVHWYQQKPGQAPVLVIYGDNNRPSGIPERFSGSNSGNTATLTISGTQAEDEADYYCQTYDSNNESIVFGGGTKLTVLG', 'FALSE'),
  ('TP-2B3 Fab (Fab, V domains shown, Human Fab from HuCal Gold, expressed in E. coli TG1) VH: QVQLQQSGPGLVKPSQTLSLTCAISGDSVSSNSAAWGWIRQSPGRGLEWLGMIYYRSKWYNSYAVSVKSRITINPDTSKNQFSLQLNSVTPEDTAVYYCARTMSKYGGPGMDVWGQGTLVTVSS VL: DIVLTQSPATLSLSPGERATLSCRASQNIGSNYLAWYQQKPGQAPRLLIYGASTRATGVPARFNGSGSGTDFTLTISSLEPEDFAVYYCQQLNSIPVTFGQGTKVEIKR', 'TRUE'),
  ('TP-4G8 Fab (Fab, V domains shown, Human Fab from HuCal Gold, expressed in E. coli TG1) VH: QVQLVESGGGLVQPGGSLRLSCAASGFTFSTYAMHWVRQAPGKGLEWVSTISGYGSFTYYADSVKGRFTISRDNSKNTLYLQMNSLRAEDTAVYYCARNGRKYGQMDNWGQGTLVTVSS VL: DIELTQPPSVSVAPGQTARISCSGDKLGSKSVHWYQQKPGQAPVLVIYRDTDRPSGIPERFSGSNSGNTATLTISGTQAEDEADYYCQTYDYILNVFGGGTKLTVLG', 'FALSE'),
  ('TP-2A8 Fab (Fab, V domains shown, Human Fab from HuCal Gold, expressed in E. coli TG1; also called Fab-2A8) VH: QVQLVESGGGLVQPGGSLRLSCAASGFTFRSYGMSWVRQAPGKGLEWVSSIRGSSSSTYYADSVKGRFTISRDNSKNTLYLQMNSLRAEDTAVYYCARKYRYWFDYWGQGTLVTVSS VL: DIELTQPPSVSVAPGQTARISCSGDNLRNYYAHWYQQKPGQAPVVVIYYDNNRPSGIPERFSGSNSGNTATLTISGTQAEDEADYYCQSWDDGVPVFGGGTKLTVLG', 'TRUE'),
  ('TP-4A9 Fab (Fab, V domains shown, Human Fab from HuCal Gold, expressed in E. coli TG1) VH: QVQLVESGGGLVQPGGSLRLSCAASGFTFSSYGMSWVRQAPGKGLEWVSLISGVSSSTYYADSVKGRFTISRDNSKNTLYLQMNSLRAEDTAVYYCARSYLGYFDVWGQGTLVTVSS VL: DIELTQPPSVSVAPGQTARISCSGDALGKYYASWYQQKPGQAPVLVIYGDNKRPSGIPERFSGSNSGNTATLTISGTQAEDEADYYCQSYTTRSLVFGGGTKLTVLG', 'TRUE'),
  ('TP-2C7 Fab (Fab, V domains shown, Human Fab from HuCal Gold, expressed in E. coli TG1) VH: QVQLQQSGPGLVKPSQTLSLTCAISGDSVSSNSAAWGWIRQSPGRGLEWLGIIYYRSKWYNHYAVSVKSRITINPDTSKNQFSLQLNSVTPEDTAVYYCARSNWSGYFDYWGQGTLVTVSS VL: DIQMTQSPSSLSASVGDRVTITCRASQDIRNNLAWYQQKPGKAPKLLIYAASSLQSGVPSRFSGSGSGTDFTLTISSLQPEDFAVYYCQQRNGFPLTFGQGTKVEIKR', 'TRUE'),
  ('TP-3B4 Fab (Fab, V domains shown, Human Fab from HuCal Gold, expressed in E. coli TG1) VH: QVQLQQSGPGLVKPSQTLSLTCAISGDSVSSNGAAWGWIRQSPGRGLEWLGHIYYRSKWYNSYAVSVKSRITINPDTSKNQFSLQLNSVTPEDTAVYYCARWGGIHDGDIYFDYWGQGTLVTVSS VL: DIQMTQSPSSLSASVGDRVTITCRASQNISNYLNWYQQKPGKAPKLLIYGTSSLQSGVPSRFSGSGSGTDFTLTISSLQPEDFAVYYCQQYGNNPTTFGQGTKVEIKR', 'FALSE'),
  ('TP-3C2 Fab (Fab, V domains shown, Human Fab from HuCal Gold, expressed in E. coli TG1) VH: QVQLQQSGPGLVKPSQTLSLTCAISGDSVSSSSAAWSWIRQSPGRGLEWLGMIYYRSKWYNHYAVSVKSRITINPDTSKNQFSLQLNSVTPEDTAVYYCARGGSGVMDVWGQGTLVTVSS VL: DIQMTQSPSSLSASVGDRVTITCRASQSITNYLNWYQQKPGKAPKLLIYDVSNLQSGVPSRFSGSGSGTDFTLTISSLQPEDFAVYYCQQYSGYPLTFGQGTKVEIKR', 'FALSE'),
  ('TP-2G6 Fab (Fab, V domains shown, Human Fab from HuCal Gold, expressed in E. coli TG1) VH: QVQLQQSGPGLVKPSQTLSLTCAISGDSVSSSSAAWSWIRQSPGRGLEWLGIIYYRSKWYNDYAVSVKSRITINPDTSKNQFSLQLNSVTPEDTAVYYCARHSMVGFDVWGQGTLVTVSS VL: DIVLTQSPATLSLSPGERATLSCRASQYVTSSYLAWYQQKPGQAPRLLIYGSSRATGVPARFSGSGSGTDFTLTISSLEPEDFATYYCQQYSSSPITFGQGTKVEIKR', 'TRUE'),
  ('TP-2A5.1 Fab (Fab, V domains shown, Human Fab from HuCal Gold, expressed in E. coli TG1) VH: QVQLVESGGGLVQPGGSLRLSCAASGFTFSSYGSWVRQAPGKGLEWVSVISGSGSSTYYADSVKGRFTISRDNSKNTLYLQMNSLRAEDTAVYYCARVNISTHFDVWGQGTLVTVSS VL: DIELTQPPSVSVAPGQTARISCSGDNIPEKYVHWYQQKPGQAPVLVIHGDNNRPSGIPERFSGSNSGNTATLTISGTQAEDEADYYCQSFDAGSYFVFGGGTKLTVLG', 'FALSE'),
  ('TP-4H8 Fab (Fab, V domains shown, Human Fab from HuCal Gold, expressed in E. coli TG1) VH: QVQLVESGGGLVQPGGSLRLSCAASGFTFSDHAMHWVRQAPGKGLEWVSVIEYSGSKTNYADSVKGRFTISRDNSKNTLYLQMNSLRAEDTAVYYCARGDYYPYLVFAIWGQGTLVTVSS VL: DIELTQPPSVSVAPGQTARISCSGDSIGKKYVHWYQQKPGQAPVLVIYGDNNRPSGIPERFSGSNSGNTATLTISGTQAEDEADYYCSTADSVITYKNVFGGGTKLTVLG', 'FALSE');
